Where do the numbers come from? From paper PMC6212398.

Biological target: Hsp27 alpha-crystallin domain (ACD, residues Q80–S176) (human, UniProt P04792 80-176)
Sequence (P04792 80-176): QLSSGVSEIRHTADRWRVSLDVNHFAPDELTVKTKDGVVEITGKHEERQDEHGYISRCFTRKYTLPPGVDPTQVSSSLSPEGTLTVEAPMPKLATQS
Assay: ITC
measured_property: Kd

> print(dat)
                                     binder  measured.property  measured
1  EITIPVTHE [Hsp27 IPV H peptide (EITIPVTHE)]                 Kd    7.3 µM
